propertyLabel: pIC50
Just so you know, pIC50 here is -log10 of the concentration in molar units; reply with that number alone.

Entry C=C(C)C(=O)Nc1ccc(-c2c(-c3ccc(N=S(=O)(CC)CC)cc3)c3c(N)ncnc3n2C)c(F)c1 : pIC50 on CYP2C19 (Homo sapiens, UniProt P33261) = 5.27

# pIC50 measured on CYP2C19 (Homo sapiens, UniProt P33261) for item C=C(C)C(=O)Nc1ccc(-c2c(-c3ccc(N=S4(=O)CCCC4)cc3)c3c(N)ncnc3n2C)c(F)c1 = 4.71

Response field pIC50 (CYP2C19 (Homo sapiens, UniProt P33261)) for item [2H]C([2H])([2H])n1c(-c2ccc(NC(=O)C(=C)C)cc2F)c(-c2ccc(N=S3(=O)CCCC3)cc2)c2c(N)ncnc21 : 4.85

* * *

# assayDetails: Pharmacokinetic test in rats
# Assay type: in vivo, male SD rats
# measurementSetup: rat, plasma, oral gavage administration, 10 mg/kg
# Description: Rat pharmacokinetic experiments were performed using male SD rats, 180-220g, provided by Beijing Vital River Laboratory Animal Technology Co., Ltd. 3 rats that were fasted overnight were taken, and administered orally by gavage (10 mg/kg). […] The main pharmacokinetic parameters were analyzed using WinNonlin8.2 software for non compartmental model analysis. […]
Please go through the items and note down their Tmax.
Give the number; min is assumed, so skip it.

Entry [2H]C([2H])([2H])n1c(-c2ccc(NC(=O)C(=C)C)cc2F)c(-c2ccc(N=S3(=O)CCCC3)cc2)c2c(N)ncnc21 ; Tmax = 19.8

Documented Tmax of C=C(C)C(=O)Nc1ccc(-c2c(-c3ccc(N=S4(=O)CC(C)(C)C4)cc3)c3c(N)ncnc3n2C)c(F)c1 : 30

Tmax for C=C(C)C(=O)Nc1ccc(-c2c(-c3ccc(N=S4(=O)CCCC4)cc3)c3c(N)ncnc3n2C)c(F)c1 is 15

Query C=C(C)C(=O)Nc1ccc(-c2c(-c3ccc(N=S(=O)(N(C)C)C(F)(F)F)c(F)c3)c3c(N)ncnc3n2C)cc1 (stereo not drawn) yields Tmax of 49.8

Tmax recorded for this compound, C=C(C)C(=O)Nc1ccc(-c2c(-c3ccc(N=S4(=O)CCC4)cc3)c3c(N)ncnc3n2C)c(F)c1 , is 15

compound C=C(C)C(=O)Nc1ccc(-c2c(-c3ccc(N=S(=O)(CC)CC)cc3)c3c(N)ncnc3n2C)c(F)c1 , Tmax observed: 30

* * *

# assayDetails: Rat liver cells metabolic stability
# Type: in vitro ADME
# measurementSetup: hepatocytes; rat liver cells 0.5 × 10^6 cells/mL; read-out: in vitro CLint (µL/min/10^6 cells)
# Experimental: Test compound and control drug verapamil powder were prepared into […] stock solution using DMSO, and they were diluted with 50% acetonitrile/50% water to 100 µM working solution before use. • 1) 49.5 mL Williams E Medium and 0.5 mL glutaMAX were mixed as incubation medium. […] All data was calculated using Microsoft Excel software. Peak area was detected by extracting ion chromatogram. […]
propertyLabel: hepatocyte CLint (µL/min/1e6 cells)
Enter your answer as a number in µL/min/1e6 cells; do not include the unit.

Query [2H]C([2H])([2H])n1c(-c2ccc(NC(=O)C(=C)C)cc2F)c(-c2ccc(N=S3(=O)CCCC3)cc2)c2c(N)ncnc21 yields hepatocyte CLint of 37.3

So for C=C(C)C(=O)Nc1ccc(-c2c(-c3ccc(N=S4(=O)CCCC4)cc3)c3c(N)ncnc3n2C)c(F)c1 , the logged hepatocyte CLint turned out to be 37.1

* * *

# target: Ba/F3-TEL-FGFR2 (Homo sapiens, UniProt P21802+P41212)
# Sequence (P21802 481-770 limits assumed, one chain of several): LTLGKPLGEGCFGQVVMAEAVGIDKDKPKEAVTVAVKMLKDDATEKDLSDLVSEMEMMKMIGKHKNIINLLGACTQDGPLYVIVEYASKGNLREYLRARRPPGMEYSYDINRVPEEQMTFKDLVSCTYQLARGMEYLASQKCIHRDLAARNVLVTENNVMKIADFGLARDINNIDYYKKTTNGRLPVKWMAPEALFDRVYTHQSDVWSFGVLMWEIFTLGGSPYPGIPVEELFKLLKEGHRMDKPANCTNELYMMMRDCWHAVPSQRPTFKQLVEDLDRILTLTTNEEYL
# assayDetails: Cell viability (proliferation inhibition) of Ba/F3 cells, CellTiter Glo
# measurementSetup: read-out: Ba/F3 cell FGFR2 (IC50 nM), 72 h
Would you kindly list IC50 for each of these molecules?
Could you give me the number in nM? Just the number is fine.

Looking up C=C(C)C(=O)Nc1ccc(-c2c(-c3ccc(N=S4(=O)CC5(CC5)C4)cc3)c3c(N)ncnc3n2C)c(F)c1 , I see its IC50 listed as 2.2

IC50 for C=C(C)C(=O)Nc1ccc(-c2c(-c3ccc(N=S4(=O)CC(C)(C)C4)cc3)c3c(N)ncnc3n2C)c(F)c1 is 1.1

Just so you know, measured IC50 for C=C(C)C(=O)Nc1ccc(-c2c(-c3ccc(N=S4(=O)CCC4)c(F)c3)c3c(N)ncnc3n2C)c(C)c1 [Compound 70] came out at 2.7

C=C(COC)C(=O)Nc1ccc(-c2c(-c3ccc(N=S4(=O)CCCC4)c(F)c3)c3c(N)ncnc3n2C)cc1 yielded IC50 of 21.5

* * *

# target: Ba/F3-TEL-FGFR2 (Homo sapiens, UniProt P21802+P41212)
# assayDetails: Cell viability (proliferation inhibition) of Ba/F3 cells, CellTiter Glo
# measurementSetup: read-out: Ba/F3 cell FGFR2 (IC50 nM), 72 h
propertyLabel: IC50 (nM)
All answers are understood in nM, so give the number only.

# compound CC#CC1=Nc2ccc(-c3c(-c4ccc(N=S(C)(C)=O)c(F)c4)c4c(N)ncnc4n3C)cc2C(C)(C)O1 ; its IC50 = 2980

According to the records, this compound [2H]C([2H])([2H])n1c(-c2ccc(NC(=O)C(=C)C)cc2F)c(-c2ccc(N=S(=O)(CC)CC)cc2)c2c(N)ncnc21 displays IC50 of 4.5

Reported IC50 ( C=C(F)C(=O)Nc1ccc(-c2c(-c3ccc(N=S4(=O)CCCC4)c(F)c3)c3c(N)ncnc3n2C)cc1 ) = 0.8

Note to self: IC50 recorded for C=C(C)C(=O)Nc1ccc(-c2c(-c3ccc(N=S(=O)(CC)CC)c(F)c3)c3c(N)ncnc3n2C)cc1 was 14.9

Just so you know, measured IC50 for C=C(C)C(=O)Nc1ccc(-c2c(-c3ccc(N=S4(=O)CCCCC4)nc3)c3c(N)ncnc3n2C)cc1 came out at 4620

IC50 for C=C(C)C(=O)Nc1ccc(-c2c(-c3ccc(N=S4(=O)CCC4)c(F)c3)c3c(N)ncnc3n2C)c(C)c1 [Compound 99] is 2.7

Item: CC#CC(=O)Nc1ccc(-c2c(-c3ccc(N=S4(=O)CCCC4)cc3)c3c(N)ncnc3n2C)c(F)c1 | IC50: 2

The recorded IC50 for C=C(C)C(=O)Nc1ccc(-c2c(-c3ccc(N=S(=O)(N(C)C)C(F)(F)F)c(F)c3)c3c(N)ncnc3n2C)cc1 (centres unmarked) is 0.9

Item: [2H]C([2H])([2H])n1c(-c2ccc(NC(=O)C(=C)C)cc2F)c(-c2ccc(N=S3(=O)C=CC(C)(C)C3)cc2)c2c(N)ncnc21 (centres unmarked) | IC50: 2.5

Notebook: C=C(C)C(=O)Nc1ccc(-c2c(-c3ccc(N=S4(=O)CCCCC4)cc3)c3c(N)ncnc3n2C)cc1 , IC50 read as 9.9

IC50 recorded for this compound, C=C(C)C(=O)Nc1ccc(-c2c(-c3ccc(N=S(C)(C)=O)c(F)c3)c3c(N)ncnc3n2C)c(F)c1 , is 32.9

Reported IC50 for C=C(C)C(=O)Nc1ccc(-c2c(-c3ccc(N=S4(=O)CCC4)c(Cl)c3)c3c(N)ncnc3n2C)c(F)c1 was 0.9

Reported IC50 ( C=C(C)C(=O)Nc1ccc(-c2c(-c3ccc(N=S(=O)(N(C)CC)C(F)(F)F)c(F)c3)c3c(N)ncnc3n2C)cc1 (centres unmarked) ) = 10.2

* * *

# target: Ba/F3-TEL-FGFR2 (Homo sapiens, UniProt P21802+P41212)
# assayDetails: Cell viability (proliferation inhibition) of Ba/F3 cells, CellTiter Glo
# measurementSetup: read-out: Ba/F3 cell FGFR2 (IC50 nM), 72 h
propertyLabel: log10 IC50 (log10 of the value in nM)
Heads up: the numbers are on a log10 scale; they represent IC50 in nM.

Data point: C=C(C)C(=O)Nc1ccc(-c2c(-c3ccc(N=S(C)(C)=O)c(F)c3)c3c(N)ncnc3n2C)cc1 ; log10 IC50 = 2.33

Lab book: log10 IC50 of C=C(C)C(=O)Nc1ccc(-c2c(-c3ccc(N=S(=O)(CC)CC)c(F)c3)c3c(N)ncnc3n2C)c(F)c1 noted as 0.28

log10 IC50 recorded for this compound, C=C(C)C(=O)Nc1ccc(-c2c(-c3ccc(N=S4(=O)CCCCC4)c(C)c3)c3c(N)ncnc3n2C)cc1 , is 1.25

C=C(C)C(=O)Nc1ccc(-c2c(-c3ccc(N=S4(=O)CCCCC4)cc3)c3c(N)ncc(C#N)c3n2C)c(F)c1 yielded log10 IC50 of 2.82

Form: compound = [2H]C([2H])([2H])n1c(-c2ccc(NC(=O)C(=C)C)cc2F)c(-c2ccc(N=S3(=O)C=CC=C3)cc2)c2c(N)ncnc21 ; log10 IC50 = -0.22

The reported log10 IC50 of the compound [2H]C([2H])([2H])n1c(-c2ccc(NC(=O)C(=C)C)cc2F)c(-c2ccc(N=S3(=O)CCCC3)c(F)c2)c2c(N)ncnc21 was 0.04

The measured log10 IC50 associated with C=C(C)C(=O)Nc1ccc(-c2c(-c3ccc(N=S4(=O)CCCCC4)c(F)c3)c3c(N)ncnc3n2C)c(OC)c1 reads 1.00

Note to self: log10 IC50 recorded for CC#CC(=O)Nc1ccc(-c2c(-c3ccc(N=S4(=O)CCCCC4)c(F)c3)c3c(N)ncnc3n2C)cc1 was 0.64

C=C(C)C(=O)Nc1ccc(-c2c(-c3ccc(N=S4(=O)CCCC4)c(OC)c3)c3c(N)ncnc3n2C)c(Cl)c1 has a reported log10 IC50 of 1.26

Sure, the documented log10 IC50 for C=C(C)C(=O)Nc1ccc(-c2c(-c3ccc(N=S(=O)(CC)CC)c(F)c3)c3c(N)ncnc3n2C)c(C)c1 is 0.67

Form: compound = [2H]C([2H])([2H])n1c(-c2ccc(NC(=O)C(=C)C)cc2Cl)c(-c2ccc(N=S3(=O)CCC3)c(Cl)c2)c2c(N)ncnc21 ; log10 IC50 = -0.15

GET /value?item= CN(C)C/C=C/C(=O)N1CC=C(c2c(-c3ccc(N=S4(=O)CCCCC4)cc3)c3c(N)ncnc3n2C)CC1 &field=log10 IC50 returns 2.02

log10 IC50 reading for [2H]C([2H])([2H])n1c(-c2ccc(NC(=O)C(=C)C)cc2F)c(-c2ccc(N=S3(=O)CCCC3)cc2)c2c(N)ncnc21 : 0.04
